Target chain: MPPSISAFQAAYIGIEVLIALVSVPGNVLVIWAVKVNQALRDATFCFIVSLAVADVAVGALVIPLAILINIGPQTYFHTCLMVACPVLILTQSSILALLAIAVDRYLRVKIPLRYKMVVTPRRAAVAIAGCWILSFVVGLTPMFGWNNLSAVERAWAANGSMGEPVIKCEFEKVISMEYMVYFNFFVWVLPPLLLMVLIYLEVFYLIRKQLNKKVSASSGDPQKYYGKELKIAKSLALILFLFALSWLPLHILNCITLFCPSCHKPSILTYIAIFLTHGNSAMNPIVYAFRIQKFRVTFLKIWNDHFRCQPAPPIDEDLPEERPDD
Here we gather Ki data for the protein given by its sequence reported by several publications.
measured parameter: Ki (nM)

[
  {
    "compound": "NCCCNC(=O)[C@H]1O[C@@H](n2cnc3c(N)ncnc32)[C@H](O)[C@@H]1O",
    "value prefix": ">",
    "quantitative readout": 10000
  },
  {
    "compound": "CNc1nc(-n2cc(-c3ccc(Cl)cc3)cn2)nc2c1ncn2C1O[C@H](CO)[C@@H](O)[C@H]1O (stereo partly specified)",
    "value prefix": ">",
    "quantitative readout": 6000
  },
  {
    "compound": "CCN(C(C)=O)c1ccc(OC)c2nc(NC(=O)C3CCN(Cc4cccc(C(F)(F)F)c4)CC3)sc12",
    "value prefix": "=",
    "quantitative readout": 10
  },
  {
    "compound": "c1coc(CNc2nc3ccccc3n3nc(-c4ccco4)nc23)c1",
    "value prefix": "=",
    "quantitative readout": 33.1
  },
  {
    "compound": "CCNC(=O)N1CCC(NC(=O)Nc2nc3nn(C)cc3c3nc(-c4ccco4)nn23)CC1",
    "value prefix": "=",
    "quantitative readout": 1500
  },
  {
    "compound": "COC(=O)c1cccc(CSc2nc(N)c(C#N)c(-c3ccc(OCC4CC4)cc3)c2C#N)c1",
    "value prefix": "=",
    "quantitative readout": 66
  }
]
